Assay: Inhibition of alpha-Glucosidase (unknown origin) using pNPG as substrate incubated for 30 mins
Design: species or system Homo sapiens
Measure name: IC50 (µM)
Response body: numeric value in µM, unit text excluded.

Would you please look over these solved cases?
C[C@H]1O[C@H](O[C@H]2[C@H](O)[C@@H](O)[C@@H](O[C@H]3[C@H](O)[C@@H](O)C(O)O[C@@H]3CO)O[C@@H]2CO)[C@H](O)[C@@H](O)[C@@H]1N[C@H]1C=C(CO)[C@@H](O)[C@H](O)[C@H]1O (stereo not given in full) [ACARBOSE]	166
CC(C)=CCc1c(O)ccc(-c2cc3ccc(O)cc3o2)c1O [2'-O-DEMETHYLBIDWILLOL B]	8.6
COc1c(CC=C(C)C)c(O)cc2c1-c1oc3cc(O)ccc3c1CO2	0.3
CC(C)=CCc1c(O)c(CC=C(C)C)c2occ(-c3ccc(O)cc3)c(=O)c2c1O	16.3
COc1c(CC=C(C)C)c(O)cc2oc(=O)c(-c3ccc(O)cc3O)cc12 [GLYCYCOUMARIN]	0.1
CC(C)=CCc1c(O)cc2c(c1O)C(=O)[C@@](O)(c1ccc(O)c3c1OC(C)(C)C=C3)CO2	20.1
COc1ccc(-c2coc3cc(O)cc(O)c3c2=O)cc1 [BIOCHANIN]	3.8
Oc1ccc2c(c1)OC[C@@H](c1cc3c(cc1O)OCO3)C2	3.8
O=C(/C=C/c1ccc(O)cc1)c1ccc(O)cc1O [ISOLIQUIRITIGENIN]	5.6

In the following, a different compound is considered.
Param item = `CC(C)=CCc1cc(-c2oc3cc(O)c(CC=C(C)C)c(O)c3c(=O)c2O)ccc1O` ; retrieve measured IC50. 3.2

---

Target: Tyrosine-protein phosphatase non-receptor type 1 (Homo sapiens)
Assay: Inhibition of recombinant human PTP1B (1 to 321 residues) expressed in Escherichia coli using p-nitrophenyl phosphate as substrate incubated for 30 mins
The reader will find reported pIC50 values listed item by item below.
// pIC50 here means minus log10 of the molar concentration (mol/L)

Would you please look over these solved cases?
COc1cc2oc(-c3ccc(O)cc3O)cc2c(OC)c1CC=C(C)C	5.48
CC(C)=CCc1c(O)ccc(-c2coc3c(CC=C(C)C)c(O)cc(O)c3c2=O)c1O	5.15
CC(C)=CCc1cc(-c2coc3cc(O)c(CC=C(C)C)c(O)c3c2=O)cc(O)c1O	5.11

Param item = `CC(C)=CCc1c(O)ccc(-c2cc3ccc(O)cc3o2)c1O` ; retrieve measured pIC50. 5.04

Param item = `C=C(C)[C@@H](O)Cc1c(O)ccc([C@@H]2COc3cc(OC)c(CC=C(C)C)c(OC)c3C2)c1O` ; retrieve measured pIC50. 5.17

---

The reader will find reported pIC50 values listed item by item below.
Target: Tyrosine-protein phosphatase non-receptor type 1 (Homo sapiens, UniProt P18031)
Sequence (P18031 whole entry, the tested form may be a part): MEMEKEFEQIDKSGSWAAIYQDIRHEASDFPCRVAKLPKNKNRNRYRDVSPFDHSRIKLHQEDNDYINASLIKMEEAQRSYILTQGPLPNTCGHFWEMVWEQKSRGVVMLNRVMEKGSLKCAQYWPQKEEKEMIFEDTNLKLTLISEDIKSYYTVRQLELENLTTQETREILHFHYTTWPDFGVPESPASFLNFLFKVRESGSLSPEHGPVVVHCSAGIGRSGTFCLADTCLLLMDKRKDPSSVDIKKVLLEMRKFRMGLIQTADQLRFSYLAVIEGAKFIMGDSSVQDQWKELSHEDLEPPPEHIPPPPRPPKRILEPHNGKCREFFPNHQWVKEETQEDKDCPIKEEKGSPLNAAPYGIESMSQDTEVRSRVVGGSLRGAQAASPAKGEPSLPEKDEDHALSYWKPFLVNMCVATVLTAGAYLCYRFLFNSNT
Test: Inhibition of recombinant human PTP1B (1 to 321 residues) expressed in Escherichia coli using p-nitrophenyl phosphate as substrate incubated for 30 mins
// pIC50 here means minus log10 of the molar concentration (mol/L)

Would you please look over these solved cases?
COc1c(CC=C(C)C)c(O)cc2c1-c1oc3cc(O)ccc3c1CO2	5.08
CC(C)=CCc1c(O)ccc(-c2coc3cc(O)c(CC=C(C)C)c(O)c3c2=O)c1O	5.12
COc1c(CC=C(C)C)c(O)cc2c1[C@@H]1Oc3cc4c(cc3[C@@H]1CO2)C=CC(C)(C)O4	5.32
CC(C)=CCc1c(O)c(CC=C(C)C)c2occ(-c3ccc(O)cc3)c(=O)c2c1O	5.64
COc1c(CC=C(C)C)c(O)cc2c1[C@@H]1Oc3cc(O)c(CC=C(C)C)cc3[C@@H]1CO2	5.36

Requested read-out pIC50, target or system Tyrosine-protein phosphatase non-receptor type 1 (Homo sapiens, UniProt P18031), entry `COc1cc(O)ccc1-c1cc2c(OC)c(CC=C(C)C)c(O)cc2o1` 5.28

Requested read-out pIC50, target or system Tyrosine-protein phosphatase non-receptor type 1 (Homo sapiens, UniProt P18031), entry COc1c(CC=C(C)C)c(O)cc2c1C[C@H](c1ccc(O)c(CC=C(C)C)c1O)CO2 [LICORICIDIN] 5.23

---

Molecular target: Tyrosine-protein phosphatase non-receptor type 1 (Homo sapiens, UniProt P18031)
Assay: Inhibition of recombinant human PTP1B (1 to 321 residues) expressed in Escherichia coli using p-nitrophenyl phosphate as substrate incubated for 30 mins
Measure name: IC50

Would you please look over these solved cases?
COc1c(-c2ccc(O)cc2)oc2cc(O)c(CC=C(C)C)c(O)c2c1=O	4.5 µM
COc1cc2c(c(O)c1CC=C(C)C)C(=O)C(c1ccc(O)c(CC=C(C)C)c1O)CO2 (stereo unspecified)	4.3 µM

Param item = CC(C)=CCc1cc([C@@H]2CC(=O)c3c(O)cc(O)c(CC=C(C)C)c3O2)ccc1O [LESPEDEZAFLAVANONE B] ; retrieve measured IC50. 2.1 µM

Param item = `CC(C)=CCc1c(O)cc2c(c1O)C(=O)[C@@](O)(c1ccc(O)c3c1OC(C)(C)C=C3)CO2` ; retrieve measured IC50. 5.9 µM

Param item = `COc1cc2c(c(OC)c1CC=C(C)C)C[C@H](c1ccc(O)c3c1OC(C)(C)C=C3)CO2` ; retrieve measured IC50. 7.2 µM

Param item = `COc1cc2occ(-c3ccc(O)cc3O)c(=O)c2c(O)c1CC=C(C)C` ; retrieve measured IC50. 5.3 µM
